For each of the variants below, state its normalized RNA/DNA level without ligand (log10).
B1: library; a variant is named by its letters at N, in order (parent)
chain: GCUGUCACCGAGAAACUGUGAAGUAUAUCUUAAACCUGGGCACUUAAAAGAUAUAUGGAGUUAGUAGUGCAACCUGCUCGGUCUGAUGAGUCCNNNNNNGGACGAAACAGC

Variants of: B1
run description: normalized RNA/DNA level without ligand (relative to sTRSVctl = 100) (log10 (% of sTRSVctl)); HEK293T; ligand: cyclic di-GMP (c-di-GMP-II aptamer); higher = less ribozyme self-cleavage, higher mRNA level
condition set: reporter: mCherry (pCS4076), ligand present: no
Quick one: just the number, no unit, thanks!

What measured normalized RNA/DNA level without ligand (log10) goes with `AUUCCC` ? 1.8

Bench note: what normalized RNA/DNA level without ligand (log10) did `GAGUUA` show? 1.74

# normalized RNA/DNA level without ligand (log10) lookup, item `UUGACG` 1.77

Using the record for `ACAUUG` , report its normalized RNA/DNA level without ligand (log10). 1.53

Look up normalized RNA/DNA level without ligand (log10): `AUCACC` 1.77

Please give the measured normalized RNA/DNA level without ligand (log10) for this variant: `UGGUCU` 1.75

Entry `GAGCUG` : reported normalized RNA/DNA level without ligand (log10) = ? 1.82

Given the variant `AAAUGU` , what is its reported normalized RNA/DNA level without ligand (log10)? 1.54
